Experiment: Inhibition of dynamin 1-mediated endocytosis internalization of Tf-A594 in human U2OS cells pretreated for 30 mins
Value type: log10(IC50) (log10 of the value in µM)

> print(dat)
                                   molecule  observed.result
1  CCCCCCCCNC(=O)/C(C#N)=C/c1c(C)n(CCN(C)C)c2ccccc12             1.12
2  CCCCCCCCCCNC(=O)/C(C#N)=C/c1c(C)n(CCN(C)C)c2ccccc12             1.76
3  CCCCCCCCNC(=O)/C(C#N)=C/c1cn(CCCN(C)C)c2ccccc12             0.70
4  CCCCCCCCNC(=O)/C(C#N)=C/c1c(C)n(CCCN(C)C)c2ccccc12             1.03
5  CCCCCCNC(=O)/C(C#N)=C/c1c(C)n(CCCN(C)C)c2ccccc12             1.16

Every entry's value here was drawn from BindingDB's records for doi:10.1021/jm900036m.
